biological target: hT1R2/hT1R3 sweet receptor (Homo sapiens, UniProt Q7RTX0+Q8TE23); construct: expressed in transfected cells; host or cells: HEK293 derivative stably expressing Gα15, clone S-9; assay: In vitro hT1R2/hT1R3 sweet taste receptor activation assay (FLIPR, dose response); assay type: cell-based; settings: Table E, Sweet Enhancer Amides; read-out: Sweet EC50
Sequence (Q8TE23 20-839): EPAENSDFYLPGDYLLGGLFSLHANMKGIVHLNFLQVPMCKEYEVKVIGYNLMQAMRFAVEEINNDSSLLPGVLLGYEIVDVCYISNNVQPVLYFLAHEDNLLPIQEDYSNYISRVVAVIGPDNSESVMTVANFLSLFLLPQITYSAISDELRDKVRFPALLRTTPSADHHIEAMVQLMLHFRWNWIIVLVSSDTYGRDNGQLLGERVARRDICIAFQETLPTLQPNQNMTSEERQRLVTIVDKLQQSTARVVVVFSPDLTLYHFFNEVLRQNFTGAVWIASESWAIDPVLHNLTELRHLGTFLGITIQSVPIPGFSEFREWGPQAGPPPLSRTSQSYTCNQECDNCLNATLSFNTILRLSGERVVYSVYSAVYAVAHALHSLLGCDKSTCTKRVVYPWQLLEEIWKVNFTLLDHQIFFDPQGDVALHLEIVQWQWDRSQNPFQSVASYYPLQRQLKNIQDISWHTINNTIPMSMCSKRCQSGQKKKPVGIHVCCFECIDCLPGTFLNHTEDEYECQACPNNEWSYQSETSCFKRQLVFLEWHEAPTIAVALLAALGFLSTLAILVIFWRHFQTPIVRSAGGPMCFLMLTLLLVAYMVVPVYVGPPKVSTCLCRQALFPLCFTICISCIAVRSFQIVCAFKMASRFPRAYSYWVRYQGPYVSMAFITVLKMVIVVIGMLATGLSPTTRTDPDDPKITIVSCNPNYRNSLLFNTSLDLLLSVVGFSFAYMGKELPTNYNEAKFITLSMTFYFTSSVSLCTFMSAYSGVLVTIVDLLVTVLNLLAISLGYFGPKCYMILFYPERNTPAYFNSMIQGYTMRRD
Sequence (Q7RTX0 21-852): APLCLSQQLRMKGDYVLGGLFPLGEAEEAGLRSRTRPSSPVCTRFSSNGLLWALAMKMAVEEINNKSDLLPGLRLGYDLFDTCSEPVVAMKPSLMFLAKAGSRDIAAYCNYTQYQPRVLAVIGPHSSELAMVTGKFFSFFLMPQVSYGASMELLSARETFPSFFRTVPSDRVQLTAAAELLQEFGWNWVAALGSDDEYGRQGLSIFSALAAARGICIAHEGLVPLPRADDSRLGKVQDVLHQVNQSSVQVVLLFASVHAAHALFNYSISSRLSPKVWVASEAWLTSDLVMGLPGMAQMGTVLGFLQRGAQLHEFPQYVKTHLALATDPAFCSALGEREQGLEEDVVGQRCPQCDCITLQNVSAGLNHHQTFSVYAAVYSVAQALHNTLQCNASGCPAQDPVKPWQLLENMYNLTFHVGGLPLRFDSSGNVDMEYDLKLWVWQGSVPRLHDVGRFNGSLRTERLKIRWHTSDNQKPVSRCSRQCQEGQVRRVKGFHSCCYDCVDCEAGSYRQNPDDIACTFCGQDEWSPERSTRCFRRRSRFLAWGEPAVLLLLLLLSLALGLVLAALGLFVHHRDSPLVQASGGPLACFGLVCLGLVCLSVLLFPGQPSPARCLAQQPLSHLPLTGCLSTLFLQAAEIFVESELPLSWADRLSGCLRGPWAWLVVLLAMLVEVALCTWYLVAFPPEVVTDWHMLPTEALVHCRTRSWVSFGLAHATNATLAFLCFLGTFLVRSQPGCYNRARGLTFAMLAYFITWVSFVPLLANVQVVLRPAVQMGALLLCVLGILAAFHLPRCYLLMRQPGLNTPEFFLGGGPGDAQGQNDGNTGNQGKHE
EC50 overview

- molecule: "CC(C)[C@H](C)NC(=O)c1c(F)c(F)c(-c2ccccc2)c(F)c1F"
  property_label: "EC50"
  result: "0.44 µM"
- molecule: "COc1c(Cl)ccc(Cl)c1C(=O)NC1CCCc2ccccc21 (stereo not drawn)"
  property_label: "EC50"
  result: "3.04 µM"
- molecule: "N#Cc1ccc(NC(=O)c2c(Cl)cccc2Cl)cc1"
  property_label: "EC50"
  result: "2.74 µM"
- molecule: "Cc1cc(C)c(C(=O)NC2CCCCC2)c(C)c1 [Example E66, N-cyclohexyl-2,4,6-trimethylbenzamide]"
  property_label: "EC50"
  result: "2.86 µM"
- molecule: "CC1CCCCC1NC(=O)c1ccnc(F)c1 (stereo not drawn)"
  property_label: "EC50"
  result: "2.83 µM"

## Task Report EC50 for COc1ccc(NC(=O)N2Cc3ccccc3C2)cc1
## Result 4.99 µM

## Task Report EC50 for Cc1cc(Br)cc(C)c1NC(=O)N1Cc2ccccc2C1
## Result 0.93 µM

## Task Report EC50 for COc1cc(C(=O)NC2CCCCC2C)cc(Cl)n1 (stereo not drawn)
## Result 0.95 µM

## Task Report EC50 for CCCc1nocc1C(=O)N[C@@H]1CCCc2c(C)cc(C)cc21
## Result 0.62 µM

###

Target: hT1R2/hT1R3 sweet receptor (Homo sapiens, UniProt Q7RTX0+Q8TE23)
Construct: expressed in transfected cells; host or cells: HEK293 derivative stably expressing Gα15, clone S-9
Experiment: In vitro hT1R2/hT1R3 sweet taste receptor activation assay (FLIPR, dose response)
Format: cell-based
Conditions: Table E, Sweet Enhancer Amides; read-out: Sweet EC50
Protocol: Activity was determined using an automated fluorometric imaging assay on a FLIPR instrument (Fluorometric Intensity Plate Reader, Molecular Devices, Sunnyvale, Calif.) (designated FLIPR assay). […] S-9 cells were grown for 24 hours at 37° C. S-9 cells were then loaded with the calcium dye Fluo-3AM (Molecular Probes, Eugene, Oreg.), 4 µM in a phosphate buffered saline (D-PBS) (Invitrogen, Carlsbad, Calif.), for 1 hour at room temperature. […]
property_label: pEC50
Value format note: pEC50 is -log10 of concentration (mol/L); just state the number.

- molecule: "Cc1ccc(NC(=O)N2Cc3ccccc3C2)cc1 [Example E104, N-p-tolylisoindoline-2-carboxamide]"
  assay_target: "hT1R2/hT1R3 sweet receptor (Homo sapiens, UniProt Q7RTX0+Q8TE23)"
  pEC50: 5.52
- molecule: "COc1ccc(Cl)c(OC)c1C(=O)N[C@H]1CCCc2ccccc21"
  assay_target: "hT1R2/hT1R3 sweet receptor (Homo sapiens, UniProt Q7RTX0+Q8TE23)"
  pEC50: 5.38
- molecule: "Cc1ccc2ccccc2c1C(=O)NC1CCCCC1C (centres unmarked)"
  assay_target: "hT1R2/hT1R3 sweet receptor (Homo sapiens, UniProt Q7RTX0+Q8TE23)"
  pEC50: 5.82

## Task Report measured pEC50 on hT1R2/hT1R3 sweet receptor (Homo sapiens, UniProt Q7RTX0+Q8TE23); entry: COc1c(Cl)cc(C(=O)Nc2ccc(C)cc2C)cc1Cl
## Result 5.83

## Task Report measured pEC50 on hT1R2/hT1R3 sweet receptor (Homo sapiens, UniProt Q7RTX0+Q8TE23); entry: CCOc1ccc(CCNC(=O)c2ccnn2C)cc1
## Result 5.33
